tested on: TK-10; assay: NCI tumour cell line growth inhibition, 48 h
Activity calls are given as the source filed them. Rule as the data show it: active = GI50 up to about 1.1 µM and inactive = higher.
Reported GI50 values follow for various molecules

molecule | GI50
Nc1ncc(C=O)c(NCC2(CO)CCC2)n1 | 15.4 µM (inactive)
CCOC(=O)CCC(=O)C1c2cccc(O)c2C(=O)c2c(O)cccc21 | 2.38 µM (inactive)
BrC12C3C4C5C(C(C43)C13OCCO3)C52 (centres undefined) | > 100 µM (inactive)
CCOC(=O)CCC(NC(=O)C(N)c1ccc([N+](=O)[O-])cc1)C(=O)NC(CCC(=O)OCC)C(=O)OCC (centres undefined) | > 100 µM (inactive)
CN1c2ccccc2N(C)C23N(C)c4ccccc4N(C)C12N(C)c1ccccc1N3C (centres undefined) | > 100 µM (inactive)
Cc1ccc(-c2c(C#N)c(-c3ccc(Cl)cc3)c(C#N)c(=O)n2NS(=O)(=O)c2ccccc2)cc1 | 74.3 µM (inactive)
O=C1C=C(C2=C(C3=CC(=O)c4ccccc4C3=O)C(=O)c3ccccc3C2=O)C(=O)c2ccccc21 | 6.21 µM (inactive)
CSC(=O)C[C@@]12O[C@@H]([C@@H](C)C3CCC4[C@@H]5C(O)CC6=CC(=O)C=C[C@]6(C)C5CC[C@@]43C)C[C@](C)(O1)C(C)(C)O2 (some centres undefined) | 17.8 µM (inactive)
C[C@]12CC(c3ccccc3O1)C(C(=O)NC13CC4CC(CC(C4)C1)C3)C(=O)N2 (some centres undefined) | 70.1 µM (inactive)
O=C(CC1(O)C(=O)Nc2ccc(Br)cc21)c1cccc([N+](=O)[O-])c1 (centres undefined) | > 100 µM (inactive)
Cc1cc(C)c2c(=O)cc(-c3ccccc3)[nH]c2c1 | 7.05 µM (inactive)
Nc1nc(N)c2cc(-c3cc4ccccc4[nH]3)ccc2n1 | 17.7 µM (inactive)
C[C@@H]1S[C@H](c2c(Cl)cccc2Cl)N2Cc3ccccc3N=C12 | > 100 µM (inactive)
CCN(CC)CCOC(NC(C)=O)(c1ccccc1)c1ccccc1 | > 100 µM (inactive)
CN1N=C(N)c2cn(C3OC(COP(=O)(O)O)C(O)C3O)c3ncnc1c23 (centres undefined) | 2.88 µM (inactive)
CCSc1nnc(-c2ccccc2)nc1Cc1ccc(OC)cc1 | > 100 µM (inactive)
CC12CC/C(=N/NC(N)=O)C3C1CCCC32 | > 100 µM (inactive)
Cc1ccc(-n2c(O)c(C#N)c3[nH]nc(N)c3c2=O)cc1 | > 100 µM (inactive)
N=C(N)NS(=O)(=O)c1ccc(NC(=O)c2ccc3nc4ccccc4c(Nc4ccc(S(N)(=O)=O)cc4)c3c2)cc1 | > 100 µM (inactive)
C[n+]1c2ccccc2c(NC(CCCNC(=N)N)C(=O)O)c2ccccc21 (centres undefined) | > 100 µM (inactive)
N=C(N)NCC1CCCCCCN1 (centres undefined) | > 100 µM (inactive)
COc1ccc(-n2c3c(c4cc(O)ccc42)C(=O)c2ccccc2C3=O)cc1 | 8.55 µM (inactive)
NC1=Nc2ccccc2Sc2nncn21 | > 100 µM (inactive)
COc1ccc(N2CN3OC(=O)N(c4ccc(OC)cc4)[C@@]3(c3ccccc3)C2)cc1 | 30.8 µM (inactive)
NCc1ccc(-c2ccc(CN)s2)s1 | 11.3 µM (inactive)
CCOC(=O)c1csc(CCCCCCc2nc(C(=O)OCC)cs2)n1 | > 92.5 µM (inactive)
CSc1nc(=O)n(CCC#N)nc1SC | 40.2 µM (inactive)
CC1=C(O)C(=O)c2cn(C)cc2C1=O | > 100 µM (inactive)
CC1=CC2CC(C)C1(C)CCc1ccoc12 (centres undefined) | > 100 µM (inactive)
Cc1ccc(S(=O)(=O)NC(CO)C(=O)O)cc1 (centres undefined) | > 100 µM (inactive)
CCC12CCC(O)C1N(C)CCC2Sc1ccccc1 (centres undefined) | > 100 µM (inactive)
CC(C)OP(=O)(OC(C)C)/C(=N/Nc1ccc([N+](=O)[O-])cc1)NN | > 100 µM (inactive)
CCOC(=O)C(=O)Nc1c(CC)cccc1C(C)C | > 100 µM (inactive)
CC[C@@]1(O)C(=O)OCc2c1cc1n(c2=O)Cc2c-1nc1ccccc1c2/C=N\NC(=O)C(N)CC(C)C (some centres undefined) | 3.12 µM (inactive)
Cc1ccc([S+]([O-])c2sccc2C=O)cc1 (centres undefined) | > 100 µM (inactive)
NC1CC(Cl)c2c(Cl)sc(Cl)c21 (centres undefined) | > 100 µM (inactive)
Nc1ncc2c(n1)-c1ccccc1OC2N1CCCCC1 (centres undefined) | > 100 µM (inactive)
CC(C)NC(=O)CN1CCN(C2=CC(=O)c3c(O)ccc(O)c3C2=O)CC1 | 17.1 µM (inactive)
C1CN(P2(N3CC3)=NP(N3CC3)(N3CC3)=NP(N3CC3)(N3CC3)=N2)CCO1 (centres undefined) [FOTRETAMINE] | > 100 µM (inactive)
CN(C)C(=S)/N=c1\ss/c(=N\C(=S)N(C)C)n1-c1ccc(Cl)cc1 | > 100 µM (inactive)
C[N+]12CCCCC1C(CN1C(=O)c3ccccc3C1=O)CCC2 (centres undefined) | > 100 µM (inactive)
COc1ccc(C2CC(C)(O)Oc3cc4c(cc32)OCO4)cc1 (centres undefined) | 36.1 µM (inactive)
COC(=O)c1cc(CC(C)C)c2c(c1)[nH]c1ccccc12 | > 100 µM (inactive)
O=C(CCCc1ccccn1)c1ccccc1 | > 100 µM (inactive)
